biological target: NAD(P)H dehydrogenase [quinone] 1 (Homo sapiens, UniProt P15559); experiment: Prodrug activation assessed as human NQO1-mediated compound reduction by measuring specific enzyme activity at 100 uM measured every 20 mins by HPLC based UV-Vis method relative to CB1954
Sequence (P15559 whole entry): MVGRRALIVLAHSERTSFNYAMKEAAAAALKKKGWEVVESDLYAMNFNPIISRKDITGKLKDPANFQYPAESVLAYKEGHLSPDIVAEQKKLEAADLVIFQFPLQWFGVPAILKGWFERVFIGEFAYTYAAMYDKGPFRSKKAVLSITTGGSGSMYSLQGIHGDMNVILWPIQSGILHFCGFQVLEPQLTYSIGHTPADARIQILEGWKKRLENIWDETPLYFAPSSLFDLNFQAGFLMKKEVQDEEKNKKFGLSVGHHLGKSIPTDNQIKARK
value.type: fold change (FC)

{"compound": "O=[N+]([O-])c1ccc(N2Cc3ccccc3CC2CCl)cc1C(F)(F)F (stereo not given)", "system.tested": "NAD(P)H dehydrogenase [quinone] 1 (Homo sapiens, UniProt P15559)", "result": 1.936}

(a) O=[N+]([O-])c1ccc(N2Cc3ccccc3CC2CCl)c(C(F)(F)F)c1 (stereo not given)
(b) O=[N+]([O-])c1cc(C(F)(F)F)ccc1N1Cc2ccccc2CC1CCl (stereo not given)
(c) O=[N+]([O-])c1ccc(N2Cc3ccccc3CC2CCl)c([N+](=O)[O-])c1 (stereo not given)
stdin: Could you please order the items by fold change (FC), going from the lowest number to the highest? Order the labels as requested and list them.
stdout: c, b, a
